Recorded values, source patent US20250152729A1.

- Target Or System: T1, human SEMA4A expressed on cells (UniProt ID Q9H3S1, isoform 1) (human, UniProt Q9H3S1 33-761)
- T1 sequence: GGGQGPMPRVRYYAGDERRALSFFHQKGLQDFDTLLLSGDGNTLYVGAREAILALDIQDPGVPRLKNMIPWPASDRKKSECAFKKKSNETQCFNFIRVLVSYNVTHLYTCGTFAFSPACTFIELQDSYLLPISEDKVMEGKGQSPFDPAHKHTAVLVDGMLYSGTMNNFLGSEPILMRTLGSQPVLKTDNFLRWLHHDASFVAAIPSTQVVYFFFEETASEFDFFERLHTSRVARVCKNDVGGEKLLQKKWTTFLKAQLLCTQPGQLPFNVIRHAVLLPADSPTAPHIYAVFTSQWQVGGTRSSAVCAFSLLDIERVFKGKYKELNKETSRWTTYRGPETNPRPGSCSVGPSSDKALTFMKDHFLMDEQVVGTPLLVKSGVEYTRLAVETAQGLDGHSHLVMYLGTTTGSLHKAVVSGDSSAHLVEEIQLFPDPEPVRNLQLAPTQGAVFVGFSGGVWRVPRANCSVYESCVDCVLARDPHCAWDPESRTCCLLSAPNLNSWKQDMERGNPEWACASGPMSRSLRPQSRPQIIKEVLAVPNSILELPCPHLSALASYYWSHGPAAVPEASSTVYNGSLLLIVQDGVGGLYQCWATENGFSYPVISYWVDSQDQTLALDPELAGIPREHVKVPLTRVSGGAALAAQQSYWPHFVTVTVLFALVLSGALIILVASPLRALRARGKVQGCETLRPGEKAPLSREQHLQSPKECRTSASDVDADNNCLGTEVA
- Experiment Summary: cell-based or functional assay
Readout: Average NCI-H929 IC50 [pM], cell kill (pM)
Answers are plain numbers, in pM.

Binder	Average NCI-H929 IC50 [pM], cell kill, pM
5Hg2-5Lg2 human Alya IgG1 conjugated to McMMAF (antibody, V domains shown, McMMAF on the engineered cysteines 239iCys and S442C (EU numbering) of the heavy constant region, Antibody-drug conjugate; human IgG1 Alya constant; also called 5Hg2/5Lg2-McMMAF) VH: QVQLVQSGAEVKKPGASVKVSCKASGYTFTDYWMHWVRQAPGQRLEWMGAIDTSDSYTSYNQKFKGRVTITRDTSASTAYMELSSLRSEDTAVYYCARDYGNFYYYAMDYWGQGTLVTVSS VL: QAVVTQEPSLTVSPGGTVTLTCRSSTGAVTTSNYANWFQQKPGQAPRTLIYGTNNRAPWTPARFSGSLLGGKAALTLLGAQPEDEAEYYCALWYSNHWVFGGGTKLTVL	34.3
5Hg1-5Lg1 human Alya IgG1 conjugated to McMMAF (antibody, V domains shown, McMMAF on the engineered cysteines 239iCys and S442C (EU numbering) of the heavy constant region, Antibody-drug conjugate; human IgG1 Alya constant; also called 5Hg1/5Lg1-McMMAF) VH: QVQLVQSGAEVKKPGASVKVSCKASGYTFTDYWMHWVRQAPGQGLEWMGAIDTSDSYTSYNQKFKGRVTMTRDTSTSTVYMELSSLRSEDTAVYYCARDYGNFYYYAMDYWGQGTLVTVSS VL: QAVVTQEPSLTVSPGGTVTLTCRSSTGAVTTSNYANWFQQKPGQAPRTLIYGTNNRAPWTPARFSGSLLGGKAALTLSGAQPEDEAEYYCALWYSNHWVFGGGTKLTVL	100
5Hg1-5Lg2 human Alya IgG1 conjugated to McMMAF (antibody, V domains shown, McMMAF on the engineered cysteines 239iCys and S442C (EU numbering) of the heavy constant region, Antibody-drug conjugate; human IgG1 Alya constant) VH: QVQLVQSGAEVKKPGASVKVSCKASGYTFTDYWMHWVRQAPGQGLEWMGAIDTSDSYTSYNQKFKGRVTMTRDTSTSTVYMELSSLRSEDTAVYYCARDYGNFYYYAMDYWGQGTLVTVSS VL: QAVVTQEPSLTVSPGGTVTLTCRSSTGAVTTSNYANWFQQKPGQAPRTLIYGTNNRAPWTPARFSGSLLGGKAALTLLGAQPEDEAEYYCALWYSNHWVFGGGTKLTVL	59.4
5Hg2-5Lg1 human Alya IgG1 conjugated to McMMAF (antibody, V domains shown, McMMAF on the engineered cysteines 239iCys and S442C (EU numbering) of the heavy constant region, Antibody-drug conjugate; human IgG1 Alya constant) VH: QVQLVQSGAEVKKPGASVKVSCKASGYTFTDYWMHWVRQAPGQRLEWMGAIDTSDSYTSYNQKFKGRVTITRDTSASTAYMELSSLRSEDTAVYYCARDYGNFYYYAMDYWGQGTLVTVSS VL: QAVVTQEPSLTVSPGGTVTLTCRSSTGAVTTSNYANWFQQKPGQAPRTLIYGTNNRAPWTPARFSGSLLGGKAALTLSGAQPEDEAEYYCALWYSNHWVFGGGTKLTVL	33.6
mouse 5E3 as human Alya IgG1 conjugated to McMMAF (antibody, V domains shown, McMMAF on the engineered cysteines 239iCys and S442C (EU numbering) of the heavy constant region, Antibody-drug conjugate; human IgG1 Alya constant, drug-to-antibody ratio of four; also called Mouse 5E3-McMMAF) VH: QVQLQQPGAELVMPGASVKMSCKASGYTFTDYWMHWVKQRPGQGLEWIGAIDTSDSYTSYNQKFKGKATLTVDESSSTAYMQLSSLTSEDSAVYYCARDYGNFYYYAMDYWGQGTSVTVSS VL: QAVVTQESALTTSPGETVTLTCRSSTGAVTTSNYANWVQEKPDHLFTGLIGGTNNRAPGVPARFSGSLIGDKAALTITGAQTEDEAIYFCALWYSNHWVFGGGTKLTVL	7.53

# ---- query binder ----
# input Give a short answer stating reported Average NCI-H929 IC50 [pM], cell kill for 5Hg2-5Lg3 human Alya IgG1 conjugated to McMMAF (antibody, V domains shown, McMMAF on the engineered cysteines 239iCys and S442C (EU numbering) of the heavy constant region, Antibody-drug conjugate; human IgG1 Alya constant) VH: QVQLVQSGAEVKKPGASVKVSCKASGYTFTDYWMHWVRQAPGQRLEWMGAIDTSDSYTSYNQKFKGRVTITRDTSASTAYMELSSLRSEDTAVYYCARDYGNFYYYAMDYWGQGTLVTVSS VL: QTVVTQEPSFSVSPGGTVTLTCRSSTGAVTTSNYANWYQQTPGQAPRTLIYGTNNRAPGVPDRFSGSILGNKAALTITGAQADDESDYYCALWYSNHWVFGGGTKLTVL .
# output 863
